Biological target: PD-1/PD-L1 (Homo sapiens (Human))
Sequence (Q9NZQ7 19-238): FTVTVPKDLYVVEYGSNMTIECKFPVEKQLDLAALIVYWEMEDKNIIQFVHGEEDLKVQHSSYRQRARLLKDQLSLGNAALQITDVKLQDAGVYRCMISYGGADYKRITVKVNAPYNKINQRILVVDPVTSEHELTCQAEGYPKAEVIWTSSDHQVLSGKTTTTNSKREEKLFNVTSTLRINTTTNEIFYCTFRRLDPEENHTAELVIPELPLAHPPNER
Assay: PD-1/PD-L1 Binding Assay (Alphascreen)
Details: range symbols
pIC50: −log10 of the molar value.
Entries and their pIC50

// known answers, use as guide
[[record]]
compound = "COc1nc(-c2cccc(-c3cccc(-c4nc5cc(CN6CCC[C@H]6C(=O)O)c(OC(F)F)cc5o4)c3C)c2Cl)cnc1CNCC1CCC(=O)N1 (stereo partly drawn)"
measured = "8.30 to 10.00"

[[record]]
compound = "Cc1c(Nc2nccc3cc(CN4CCC(O)C4)cnc23)cccc1-c1cccc(-c2nc3cc(CN4CCC[C@@H]4C(=O)O)c(OC(F)F)cc3o2)c1C (stereo partly drawn)"
measured = "8.30 to 10.00"

[[record]]
compound = "Cc1c(-c2ccc(CN3CCCC3)c(OCC3CC3)c2)cccc1-c1cccc(-c2nc3cc(CN4CCC[C@H]4C(=O)O)c(OC(F)F)cc3o2)c1C"
measured = "8.30 to 10.00"


Fill in reported pIC50 for this entry: Cc1c(-c2nc3cc(CN4CC[C@H](C(=O)O)C4)c(OC(F)F)cc3o2)cccc1-c1cccc(-c2nc3cc(CN4CCC(C)C4)cc(C(F)(F)F)c3o2)c1C (stereo partly drawn)
8.30 to 10.00

Fill in reported pIC50 for this entry: Cc1c(-c2nc3c(o2)CCN(CC#N)C3)cccc1-c1cccc(-c2nc3cc(CN4CCC[C@H]4C(=O)O)c(OC(F)F)cc3o2)c1C
7.30 to 8.30

Fill in reported pIC50 for this entry: Cc1c(-c2nc3cc(CN4CCC[C@H]4C(=O)O)c(OC(F)F)cc3o2)cccc1-c1cccc(-c2cnc(CN3CCCC3)c(F)c2)c1CF
7.30 to 8.30

Fill in reported pIC50 for this entry: Cc1c(-c2nc3cc(CN4CCC[C@H]4C(=O)O)c(OC(F)F)cc3o2)cccc1-c1cccc(-c2nc3cc(CN4CCCC4)c(F)c(F)c3n2C)c1C
7.30 to 8.30

Fill in reported pIC50 for this entry: Cc1c(-c2ccc(CN3CC[C@H](CO)C3)c(C#N)c2)cccc1-c1cccc(-c2nc3cc(CN4CCC[C@H]4C(=O)O)c(OC(F)F)cc3o2)c1C
7.30 to 8.30

---

Assay: Pharmacokinetic Assay, single oral dose 100 mg/kg (Table 11)
Type: in vivo
Conditions: mouse, C57 female mice, oral (intragastric), plasma
METRIC: Cmax (ng/mL)
Reply numerically in ng/mL, unit not repeated.

Fill in reported Cmax for this entry: Cc1c(-c2nc3cc(CNC[C@H]4CCCO4)c(OC(F)F)cc3o2)cccc1-c1cccc(-c2nc3cc(CN4CCC[C@H]4C(=O)O)c(OC(F)F)cc3o2)c1C
3720

Fill in reported Cmax for this entry: Cc1c(Nc2nccc3cc(CN4CCC(O)C4)cnc23)cccc1-c1cccc(-c2nc3cc(CN4CCC[C@H]4C(=O)O)c(OC(F)F)cc3o2)c1C (some centres unmarked)
1630

Fill in reported Cmax for this entry: Cc1c(-c2nc3cc(CNC4COC4)c(OC(F)F)cc3o2)cccc1-c1cccc(-c2nc3cc(CN4CCC[C@H]4C(=O)O)c(OC(F)F)cc3o2)c1C
1280

---

Entries and their pIC50
Molecular target: PD-1/PD-L1 (Homo sapiens (Human))
Experiment: PD-1/PD-L1 Binding Assay (Alphascreen)
Details: numeric values
Keep in mind that pIC50 stands for -log10 of concentration in molar terms.

[[record]]
molecule = "Cc1c(-c2ccc(CN3CCC(C)C3)c(F)c2)cccc1-c1cccc(-c2nc3cc(CN4CCC[C@H]4C(=O)O)c(OC(F)F)cc3o2)c1C (some centres unmarked)"
measured = 8.64

[[record]]
molecule = "COC1CCN(Cc2ccc(-c3cccc(-c4cccc(-c5nc6cc(CN7CCC[C@H]7C(=O)O)c(OC(F)F)cc6o5)c4C)c3C)cc2)C1 (some centres unmarked)"
measured = 8.39

[[record]]
molecule = "Cc1c(-c2nc3cc(CN4CCC[C@H]4C(=O)O)c(OC(F)F)cc3o2)cccc1-c1cccc(-c2nc3cc(CN4CCC4)cc(C)c3o2)c1C"
measured = 8.72

[[record]]
molecule = "Cc1c(COc2cc(OCc3cncc(OC(F)F)c3)c(CN3CCC(F)C3)cc2Cl)cccc1-c1cccc(-c2nc3cc(CN4CCC[C@H]4C(=O)O)c(OC(F)F)cc3o2)c1C (some centres unmarked)"
measured = 8.85

[[record]]
molecule = "Cc1c(-c2nc3cc(CNCC(O)C(F)(F)F)c(OC(F)F)cc3o2)cccc1-c1cccc(-c2nc3cc(CN4CCC[C@H]4C(=O)O)c(OC(F)F)cc3o2)c1C (some centres unmarked)"
measured = 7.60


Fill in reported pIC50 for this entry: Cc1c(-c2nc3cc(CN4CCOCC4)c(OC(F)F)cc3o2)cccc1-c1cccc(-c2nc3cc(CN4CCC[C@H]4C(=O)O)c(OC(F)F)cc3o2)c1C
7.59

Fill in reported pIC50 for this entry: Cc1c(-c2nc3cc(CN4CC5CC4C5)c(OC(F)F)cc3o2)cccc1-c1cccc(-c2nc3cc(CN4CCC[C@H]4C(=O)O)c(OC(F)F)cc3o2)c1C
9.43

Fill in reported pIC50 for this entry: Cc1c(-c2ccc(NC(=N)N)cc2)cccc1-c1cccc(-c2nc3cc(CN4CCC[C@H]4C(=O)O)c(OC(F)F)cc3o2)c1C
8.70
